Value source: patent US20180244758A1

Documented Microneut. WT IC50 across a set of binders
Tgt: T1, GP of authentic (wild-type) EBOV (Ebola virus (EBOV), UniProt P87666 33-676)
T1 sequence: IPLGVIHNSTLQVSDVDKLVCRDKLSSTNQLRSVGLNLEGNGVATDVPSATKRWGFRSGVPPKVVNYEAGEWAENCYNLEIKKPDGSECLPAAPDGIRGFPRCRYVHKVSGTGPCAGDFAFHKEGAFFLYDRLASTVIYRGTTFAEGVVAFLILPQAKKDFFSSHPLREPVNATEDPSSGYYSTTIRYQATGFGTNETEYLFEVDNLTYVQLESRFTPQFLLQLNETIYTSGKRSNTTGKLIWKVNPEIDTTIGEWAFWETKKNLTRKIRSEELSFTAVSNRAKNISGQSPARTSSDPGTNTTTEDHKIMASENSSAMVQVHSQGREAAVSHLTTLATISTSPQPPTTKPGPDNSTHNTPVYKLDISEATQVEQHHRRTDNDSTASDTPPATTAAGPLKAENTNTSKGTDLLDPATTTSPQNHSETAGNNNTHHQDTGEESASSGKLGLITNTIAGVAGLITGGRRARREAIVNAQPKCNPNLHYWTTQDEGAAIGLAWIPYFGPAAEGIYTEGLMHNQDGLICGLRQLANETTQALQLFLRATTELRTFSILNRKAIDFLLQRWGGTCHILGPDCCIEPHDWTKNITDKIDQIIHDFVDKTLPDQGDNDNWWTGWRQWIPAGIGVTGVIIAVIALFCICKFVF
Procedure summary: cell-based or functional assay
Measurement type: Microneut. WT IC50 (nM)

Binder | Obs value
mAb PE-16 (antibody, V domains shown) VH: QVQLVQSGAEVTKPGASVKVSCKASGYTFTTYYMHWVRQAPGQGLEWVGIINPSGGITRYAQKFQGRVTLTRDTSTTTVYMELSSLRSEDTAVYYCARDRYPVLFATDYGMDVWGQGTTVTVSS VL: DIVMTQSPATLSLSPGERATLSCRASQSVSGYLAWYQQKPGQAPRLLIYDASNRATGIPARFSGSGSGTDFTLTISSLEPEDFAVYYCQQRSIWPPGVTFGGGTKVEIK | 0.05
mAb PE-87 (antibody, V domains shown) VH: QVQLVQSGVTLVQPGGSLRVSCAASGFTFSSYAMSWVRQAPGKGLEWVSAISGLGGSTYYADSVKGRFTISRDNSKNTLYLQMNSLRAEDTAVYYCAKDHRVWAAGYHFDYWGQGALVTVSS VL: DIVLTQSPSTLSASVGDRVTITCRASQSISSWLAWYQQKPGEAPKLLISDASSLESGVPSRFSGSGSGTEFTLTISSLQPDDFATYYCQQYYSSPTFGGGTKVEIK | 0.3
mAb PE-24 (antibody, V domains shown) VH: EVQLVESGGGLVQPGGSLRLSCAASGFTFSSYAMSWVRQAPGKGLEWVSEISGLGGSTYYADSAKGRFTISRDNSKSTLYLQMNSLRAEDTAVYYCAKDHRVWAPGYYFDHWGQGTLVTVSS VL: DIVLTQSPSTLSASVGDRVTITCRASQSISSWLAWYQQKPGKAPKLLIYDASSLESGVPSRFSGSGSGTEFTLTISSLQPDDFATYFCQQYNRSPTFGGGTKVEIK | 1
mAb PE-47 (antibody, V domains shown) VH: EVQLVESGGGLVKPGGSLRLSCAASGFTFSNAWMSWVRQAPGEGLEWVGRIKSKTDGGTIDYAAPVKGRFTISRDDSKNTVYLQMTSLKTEDTAVYYCTTYTEDMQYFDWLLRGGETFDYWGQGTLVTVSS VL: DIQMTQSPSSLSASVGDRVTITCRASQYISTYLNWYQQKPGKAPKLLIYAAYNLQSGVPSRFSGSGSGTDFTLTISSLQPEDFATYYCQQSYSTPGRYTFGQGTKVEIK | 0.7
